Each entry below carries its recorded EC50.
target.desc: MPXV ortholog of the A27 VACV protein (monkeypox virus)
assay.notes: lysate ELISA
Give the number; µg/mL is assumed, so skip it.

1. VACV-154 (antibody, V domains shown) VH: EVQLLESGGGLVQPGESLRLSCAASGFTLRNYAMSWVRQTPGKGLEWVSAISGSGGSTYYADSVKGRFTISRDTSKNTLYVQMNSLRAEDTAVYYCAKIRLDSSGYSGAFDIWGQGTRVTVSS VL: SYELTQPPSVSVSPGQTARITCSGDALPKQYASWYQQKPGQAPVLVIYKDSERPSGIPERFSGSSSGTTVTLTISGVQAEDEADYYCQSADSSGTYPVVFGGGTQLTVL ... 0.02

Then this binder:
Input VACV-303 (antibody, V domains shown) VH: EVQLLESGGGLVQPGGSLRLSCAASGFTFSSYAMSWVRQAPGKGLEWVSAISGTGGNTYYADSVKGRFTISRDKSKNTLYLQMHSLRAEDTAVYYCATSLIWWLQSDYWGQGTLVTVSS VL: DIQMTQSPSSLSASVGDRVTITCRASQSIASYLIWYQQKPGNAPKLLIYAASSLQSGVPSRFSGSGSGTDFTLTISSLQPEDFATYYCQQSYSTPQTFGQGTKVDIK . Output EC50: 0.004
